# TGT: T1, full-length beta-catenin (UniProt P35222 2-781, limits assumed)
# T1 construct: mature; also called full-length ß-Catenin; β-catenin
# T1 sequence (looked up): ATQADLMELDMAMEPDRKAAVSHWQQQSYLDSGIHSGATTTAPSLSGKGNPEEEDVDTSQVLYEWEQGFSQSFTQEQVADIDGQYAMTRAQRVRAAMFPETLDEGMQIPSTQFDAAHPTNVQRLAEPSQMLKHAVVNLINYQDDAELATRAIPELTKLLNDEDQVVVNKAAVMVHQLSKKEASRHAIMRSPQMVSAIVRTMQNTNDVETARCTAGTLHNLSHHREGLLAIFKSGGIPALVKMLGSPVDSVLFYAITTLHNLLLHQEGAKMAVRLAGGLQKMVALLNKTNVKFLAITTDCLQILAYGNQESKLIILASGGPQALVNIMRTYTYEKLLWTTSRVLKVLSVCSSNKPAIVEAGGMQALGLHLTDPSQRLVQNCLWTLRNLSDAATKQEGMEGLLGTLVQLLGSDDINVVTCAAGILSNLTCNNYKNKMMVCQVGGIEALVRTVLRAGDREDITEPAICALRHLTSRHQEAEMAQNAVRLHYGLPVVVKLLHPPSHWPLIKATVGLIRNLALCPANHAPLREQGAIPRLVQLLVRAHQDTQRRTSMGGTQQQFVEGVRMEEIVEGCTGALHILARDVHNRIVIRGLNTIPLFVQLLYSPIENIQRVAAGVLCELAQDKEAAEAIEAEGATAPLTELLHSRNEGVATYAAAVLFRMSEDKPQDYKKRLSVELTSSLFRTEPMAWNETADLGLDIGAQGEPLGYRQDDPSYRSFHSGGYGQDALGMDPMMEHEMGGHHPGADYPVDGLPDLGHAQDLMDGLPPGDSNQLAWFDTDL
# ASSAY COMMENT: competition FP; NB = no binding detected
Bridge positions count the residues as written; N and C are the ends. Square brackets hold non-standard residues; d marks the D form. Primed or numbered codes have the meaning given here. MB″ = Monomer B (PyrS), pyrrolidine stapling residue with N-allyl carbamate, forms carbamate staple with R8 by olefin metathesis; MB(6) = Monomer B (PyrS), N-Alloc pyrrolidine stapling residue, forms carbamate staple with R8 by olefin metathesis; 2Pal = N[C@@H](Cc1ccccn1)C(=O)O; R8 = C=CCCCCCC[C@@](C)(N)C(=O)O; Cha = N[C@@H](CC1CCCCC1)C(=O)O; Cba = N[C@@H](CC1CCC1)C(=O)O
MEASURED METRIC: binding result

# BINDER, MEASURED METRIC, RESULT
rows = [
    ("Ac-A[R8]ILDA[2Pal]I[MB″][Cba]VW-NH2 (staple 2-9; not fully specified; printed as Ac-A-R8-I-L-D-A-2pyr-I-MB-Cba-V-W-NH2) [FP0565c Isomer 1]", "binding result", "no binding"),
    ("Ac-A[R8]ILDA[2Pal]I[MB(6)][Cha]VW-NH2 (staple 2-9; not fully specified; printed as Ac-A-R8-I-L-D-A-2pyr-I-MB-Cha-V-W-NH2) [FP0566c Isomer 1]", "binding result", "no binding"),
    ("Ac-A[R8]ILDA[2Pal]I[MB″]WVW-NH2 (staple 2-9; not fully specified; printed as Ac-A-R8-I-L-D-A-2pyr-I-MB-W-V-W-NH2) [FP0563c Isomer 2]", "binding result", "no binding"),
]
